Test system: NCI-H460
Assay: Antiproliferative activity against human NCI-H460 cells assessed as inhibition of cell growth
Format: functional, cell-based
Experimental endpoint: IC50 (µM)

>  <Record smiles>
Cc1ccc(C2=NN=C(/C(C#N)=N/Nc3sc4c(c3C#N)CCCC4)N(Nc3ccccc3)C2)cc1

>  <Assay result>
6.8

$$$$

---

Biological target: Cyclin-dependent kinase 2/cyclin E1 (Homo sapiens)
Assay: Inhibition of CDK2/cyclin E1 (unknown origin) expressed in Sf9 cells
# note: boundary value 10 µM maps to not satisfied; IC50 below it maps to satisfied

>  <Record smiles>
Oc1cccc(-n2nc(-c3cc(O)c(O)c(O)c3)c3nc(-c4ccc(Cl)cc4)nnc32)c1

>  <Group label>
not satisfied

$$$$
>  <Record smiles>
Oc1cc(-c2nn(-c3cc(O)c(O)c(O)c3)c3nnc(-c4ccc(Cl)cc4)nc23)cc(O)c1O

>  <Group label>
not satisfied

$$$$
>  <Record smiles>
Oc1ccc(-n2nc(-c3cc(O)c(O)c(O)c3)c3nc(-c4ccccc4)nnc32)cc1

>  <Group label>
not satisfied

$$$$
>  <Record smiles>
COc1cc(-c2nnc3c(n2)c(-c2cc(O)c(O)c(O)c2)nn3-c2cc(OC)c(OC)c(OC)c2)cc(OC)c1OC

>  <Group label>
satisfied

$$$$
>  <Record smiles>
Oc1ccccc1-n1nc(-c2cc(O)c(O)c(O)c2)c2nc(-c3ccccc3)nnc21

>  <Group label>
not satisfied

$$$$
>  <Record smiles>
Oc1cccc(-n2nc(-c3cc(O)c(O)c(O)c3)c3nc(-c4ccccc4)nnc32)c1

>  <Group label>
satisfied

$$$$
>  <Record smiles>
Oc1ccccc1-n1nc(-c2cc(O)c(O)c(O)c2)c2nc(-c3ccc(Cl)cc3)nnc21

>  <Group label>
not satisfied

$$$$
>  <Record smiles>
Oc1ccc(-n2nc(-c3cc(O)c(O)c(O)c3)c3nc(-c4ccc(Cl)cc4)nnc32)cc1

>  <Group label>
not satisfied

$$$$
>  <Record smiles>
Oc1cc(-c2nn(-c3ccc(Cl)cc3)c3nnc(-c4ccc(Cl)cc4)nc23)cc(O)c1O

>  <Group label>
not satisfied

$$$$

---

Assay: Ratio of IC50 for antiproliferative activity against human MCF7 cells assessed as inhibition of cell growth under normoxia condition to IC50 for antiproliferative activity against human MCF7 cells assessed as inhibition of cell growth under hypoxia condition
Format: functional
# note: boundary value 2 maps to n; Ratio IC50 below it maps to y

>  <Molecule>
[O-][n+]1nc(NC2CCCCC2)[n+]([O-])c2ccccc21

>  <Group label>
y

$$$$
>  <Molecule>
Nc1n[n+]([O-])c2ccccc2[n+]1[O-] [TIRAPAZAMINE]

>  <Group label>
y

$$$$
>  <Molecule>
Cc1ccc2c(c1)[n+]([O-])nc(NCc1ccccc1)[n+]2[O-]

>  <Group label>
n

$$$$
>  <Molecule>
CCCCCCNc1n[n+]([O-])c2cc(C)ccc2[n+]1[O-]

>  <Group label>
y

$$$$
>  <Molecule>
CCCCCCNc1n[n+]([O-])c2ccccc2[n+]1[O-]

>  <Group label>
y

$$$$
>  <Molecule>
Cc1ccc2c(c1)[n+]([O-])nc(Nc1ccccc1)[n+]2[O-]

>  <Group label>
n

$$$$
>  <Molecule>
O=[N+]([O-])c1ccc2c(c1)[n+]([O-])nc(Nc1ccccc1)[n+]2[O-]

>  <Group label>
y

$$$$
>  <Molecule>
CCNc1n[n+]([O-])c2ccccc2[n+]1[O-]

>  <Group label>
n

$$$$
>  <Molecule>
COc1ccc2c(c1)[n+]([O-])nc(NCC1CCCCC1)[n+]2[O-]

>  <Group label>
n

$$$$
>  <Molecule>
CCCCCCNc1n[n+]([O-])c2cc(Cl)ccc2[n+]1[O-]

>  <Group label>
n

$$$$
>  <Molecule>
CCNc1n[n+]([O-])c2cc(C)ccc2[n+]1[O-]

>  <Group label>
n

$$$$
>  <Molecule>
[O-][n+]1nc(Nc2ccccc2)[n+]([O-])c2ccccc21

>  <Group label>
n

$$$$
>  <Molecule>
[O-][n+]1nc(Nc2ccccc2)[n+]([O-])c2ccc(Cl)cc21

>  <Group label>
n

$$$$
>  <Molecule>
CCNc1n[n+]([O-])c2cc(Cl)ccc2[n+]1[O-]

>  <Group label>
n

$$$$
>  <Molecule>
O=[N+]([O-])c1ccc2c(c1)[n+]([O-])nc(NCc1ccccc1)[n+]2[O-]

>  <Group label>
y

$$$$
>  <Molecule>
[O-][n+]1nc(NCc2ccccc2)[n+]([O-])c2ccccc21

>  <Group label>
y

$$$$
>  <Molecule>
[O-][n+]1nc(NC2CCCCC2)[n+]([O-])c2ccc(Cl)cc21

>  <Group label>
n

$$$$
>  <Molecule>
[O-][n+]1nc(NCc2ccccc2)[n+]([O-])c2ccc(Cl)cc21

>  <Group label>
y

$$$$
>  <Molecule>
COc1ccc2c(c1)[n+]([O-])nc(NC1CCCCC1)[n+]2[O-]

>  <Group label>
n

$$$$

Measured values drawn from ChEMBL document CHEMBL5260813 for this set.
